Hello, the source for this data is patent US10300155B2, in case you need it.

- target system: α-synuclein fibrils (Homo sapiens)
- Construct: made in house; host or cells: E. coli BL21(DE3)RIL
- assay name: ThT competitive assay for α-synuclein fibrils (Table 1)
- Type: binding
- condition: average; read-out: Ki (nM) α-syn (avg)
value type: Ki (nM)
// note: answer is a bare numeric in nM

A selection of reference data follows.
molecule	value type	u	reading
COc1ccc2nc(/C=C/c3ccc(Cl)nc3)ccc2c1 [TZ-36-38]	Ki	nM	39
COc1cccc(/C=C/c2cnccn2)c1 [TZ-22-49-1]	Ki	nM	117

Look up Ki with α-synuclein fibrils (Homo sapiens) for this molecule: COc1cccc2nc(/C=C/c3ccccc3)ccc12 [TZ-19-152]
532
